Assign pIC50 to each entry below.
- System: NCI-H358 cells (express KRas G12C), Phospho-ERK
- test: Cellular inhibition of KRas G12C: Phospho-ERK in NCI-H358 cells
- Format: cell-based
- settings: Homo sapiens, NCI-H358, 3 h, pERK(Thr202/Tyr204) normalized with GAPDH; NCI-H358 cells; 3 hours; read-out: IC50
pIC50: −log10 of the molar value.

These solved cases illustrate the format of a correct answer.
{"columns": ["compound", "pIC50"],
 "data": [
  ["C=CC(=O)N1CCN(c2ncnc3c2CCN(c2cccc4ccccc24)C3)CC1 [Example 3]", "< 6.00"],
  ["C=CC(=O)N1CCN(c2nc(OCc3ncc[nH]3)nc3c2CCN(c2cccc4ccccc24)C3)C[C@@H]1CC#N [Example 351]", "6.00 to 10.00"],
  ["C=CC(=O)N1CCN(c2nc(OC[C@@H]3CCCN3C)nc3c2CCN(c2cccc(Cl)c2C(F)(F)F)C3)CC1CC#N (stereo partly drawn) [Example 277]", "6.00 to 10.00"]
]}

Take each entry in turn and give its pIC50.
1. C=CC(=O)N1CCN(c2nc(OC(C)CNC)nc3c2CCN(c2cc(O)cc4ccccc24)C3)CC1 (stereo not drawn) [Example 70]
2. C=CC(=O)N1CCN(c2nc(OC[C@@H]3C[C@@H](O)CN3C)nc3c2CCN(c2ccccc2C(F)(F)F)C3)CC1CC#N (stereo partly drawn) [Example 312]
3. C=CC(=O)N1CCN(c2nc(OC[C@@H]3CCCN3C)nc3c2CCN(c2nncc4ccccc24)C3)C[C@@H]1CC#N [Example 430]
4. C=CC(=O)N1CCN(c2nc(O[C@H](C)[C@H]3CCCN3C)nc3c2CCN(c2cc(O)cc4ccccc24)C3)C[C@@H]1CC#N [Example 348]
5. C=CC(=O)N1CCN(c2nc(OCC3CCN(C4CCCCC4)C3)nc3c2CCN(c2cc(O)cc4ccccc24)C3)CC1 (stereo not drawn) [Example 132]
6. C=CC(=O)N1CCN(c2nc(OC[C@H]3CCCCN3C)nc3c2CCN(c2cccc4ccccc24)C3)C[C@@H]1CC#N [Example 431]
7. C=CC(=O)N1CCN(c2nc(OCCCN3CCCC3)nc3c2CCN(c2cc(O)cc4ccccc24)C3)CC1 [Example 39]

1: < 6.00; 2: 6.00 to 10.00; 3: < 6.00; 4: 6.00 to 10.00; 5: 6.00 to 10.00; 6: 6.00 to 10.00; 7: 6.00 to 10.00
